- subject of test: T1, EsCas13d, nuclease-dead (Eubacterium siraeum, UniProt B0MS50, R295A;H300A;R849A;H854A)
- T1 sequence: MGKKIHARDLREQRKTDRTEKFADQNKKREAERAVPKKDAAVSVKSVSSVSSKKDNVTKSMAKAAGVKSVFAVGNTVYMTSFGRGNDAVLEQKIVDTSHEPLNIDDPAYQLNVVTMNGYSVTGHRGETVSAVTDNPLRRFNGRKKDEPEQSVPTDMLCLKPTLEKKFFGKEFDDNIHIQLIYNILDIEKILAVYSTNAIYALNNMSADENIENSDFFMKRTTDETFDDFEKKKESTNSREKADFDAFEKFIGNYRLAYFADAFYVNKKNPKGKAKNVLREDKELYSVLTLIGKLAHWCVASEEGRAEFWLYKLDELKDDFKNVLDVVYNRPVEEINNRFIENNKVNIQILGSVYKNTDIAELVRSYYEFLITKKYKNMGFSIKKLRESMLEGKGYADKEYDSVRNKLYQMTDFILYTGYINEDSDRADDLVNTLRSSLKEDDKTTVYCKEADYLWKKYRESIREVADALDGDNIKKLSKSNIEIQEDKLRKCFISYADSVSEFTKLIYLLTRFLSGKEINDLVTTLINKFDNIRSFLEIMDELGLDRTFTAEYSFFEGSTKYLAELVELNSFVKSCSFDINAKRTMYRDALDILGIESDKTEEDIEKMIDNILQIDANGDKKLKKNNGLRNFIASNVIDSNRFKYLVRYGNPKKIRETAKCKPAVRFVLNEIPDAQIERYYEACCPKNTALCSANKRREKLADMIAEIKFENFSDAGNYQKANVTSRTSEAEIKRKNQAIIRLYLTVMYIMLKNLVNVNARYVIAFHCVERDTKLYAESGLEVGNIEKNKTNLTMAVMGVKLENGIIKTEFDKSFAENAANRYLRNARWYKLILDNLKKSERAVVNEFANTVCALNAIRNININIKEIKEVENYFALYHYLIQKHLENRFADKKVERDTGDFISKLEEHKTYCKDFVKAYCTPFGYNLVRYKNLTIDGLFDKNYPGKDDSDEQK
- protocol: BLI; crRNA (strand 1, pre-loaded); Mg2+; 40 mM Tris-HCl pH 7.5, 150 mM NaCl, 6 mM MgCl2, 1 mM DTT, 0.1% Tween-20, 0.2 mg/ml BSA; temperature not stated
- conditions: tags: His6-TwinStrep-SUMO cleaved; label: 3' biotin on strand 2
Reported Kd values for the following binders.
measured endpoint: Kd (nM)

# binder, unit label, value observed
data = [
    ("target 1 C7A (60-mer) (mixed) RNA 1: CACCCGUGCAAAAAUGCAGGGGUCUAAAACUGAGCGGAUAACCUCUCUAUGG RNA 2: CCACAUCUACGAAUUCGUACCAUAGAGAGGUUAUACGCUCACCGAGAUCGGAAGAGCACA", "nM", 2.1),
    ("target 1 U10G (60-mer) (mixed) RNA 1: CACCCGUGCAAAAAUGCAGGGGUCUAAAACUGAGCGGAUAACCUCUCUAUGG RNA 2: CCACAUCUACGAAUUCGUACCAUAGAGAGGUGAUCCGCUCACCGAGAUCGGAAGAGCACA", "nM", 3.8),
    ("target 1 3'-GCU (60-mer) (mixed) RNA 1: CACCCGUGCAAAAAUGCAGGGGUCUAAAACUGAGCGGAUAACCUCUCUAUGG RNA 2: CCACAUCUACGAAUUCGUACCAUAGAGAGGUUAUCCGCUCAGCUAGAUCGGAAGAGCACA", "nM", 4.2),
    ("target 1 3'-GGU (60-mer) (mixed) RNA 1: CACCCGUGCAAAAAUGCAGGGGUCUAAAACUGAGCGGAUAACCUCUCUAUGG RNA 2: CCACAUCUACGAAUUCGUACCAUAGAGAGGUUAUCCGCUCAGGUAGAUCGGAAGAGCACA", "nM", 7.1),
    ("crRNA-1 (MT) target (mixed) RNA 1: CACCCGUGCAAAAUUGCAGGGGUCUAAAACUUUUGGUUGACCACAUCUUGAA RNA 2: UUGGAAAACUUCAAGAUGUGGUCAACCAAAAUGCACAAGC", "nM", 4),
    ("target 1 C22A (60-mer) (mixed) RNA 1: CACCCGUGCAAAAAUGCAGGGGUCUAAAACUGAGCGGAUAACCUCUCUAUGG RNA 2: CCACAUCUACGAAUUCGUAACAUAGAGAGGUUAUCCGCUCACCGAGAUCGGAAGAGCACA", "nM", 3.6),
    ("target 1 3'-UAA (60-mer) (mixed) RNA 1: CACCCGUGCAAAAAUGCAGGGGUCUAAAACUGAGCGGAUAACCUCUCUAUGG RNA 2: CCACAUCUACGAAUUCGUACCAUAGAGAGGUUAUCCGCUCAUAAAGAUCGGAAGAGCACA", "nM", 6),
    ("target 1 5'-UAA (60-mer) (mixed) RNA 1: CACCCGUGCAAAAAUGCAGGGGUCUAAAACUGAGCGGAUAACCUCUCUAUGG RNA 2: CCACAUCUACGAAUUCUAACCAUAGAGAGGUUAUCCGCUCACCGAGAUCGGAAGAGCACA", "nM", 6),
]
